TEST: Bmi1 luciferase reporter increase in mESCs, primary screen, esBAF inhibitor project, mouse ES cells, Bmi1 luciferase knock-in, single point (AID 602393);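 note: 0% = median of the plate's neutral control wells and 100% = double that signal; a rise in the Bmi1 reporter signal indicates esBAF inhibition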
CONDITIONS_USED: 24 h, at 12.5 µM, active compounds read high, 100% = twice the neutral-well signal
Out of some 350,000 compounds screened, about 7,000 (2%) were called active. For the sample, actives were picked, then their nearest neighbours and some compounds at random.
Mark true for reported reporter increase of 5% or greater; mark false for anything smaller.

// known answers, use as guide
{"COMPOUND": "COc1ccc(C2=NN(C(C)=O)C(c3ccccc3)C2)cc1 (stereo unspecified)", "LABEL_VALUE": "true"}
{"COMPOUND": "COc1ccccc1CNC(=O)C[C@@H]1C[C@H]2c3cc(NC(=O)CN(C)C)ccc3O[C@H]2[C@@H](CO)O1", "LABEL_VALUE": "false"}
{"COMPOUND": "COc1ccc(C2CC(c3ccc([N+](=O)[O-])cc3)=NN2C(C)=O)cc1 (stereo unspecified)", "LABEL_VALUE": "true"}
{"COMPOUND": "CCCCCOc1ccc(/C=C/C(=O)NCCc2nc3ccccc3[nH]2)cc1OC", "LABEL_VALUE": "false"}

Prompt line: Kindly determine if reporter increase recorded for COc1ccc(C2CC(c3cccc(OC)c3)=NN2c2ccc(S(N)(=O)=O)cc2)cc1 (stereo unspecified) is above or exactly 5%.
Response line: false

Prompt line: CCOc1ccc(/C=C(/C#N)c2nnc(N3CCOCC3)n2-c2ccccc2)cc1OC , same question.
Response line: false

====

TEST: Bmi1 luciferase reporter increase in mESCs, primary screen, esBAF inhibitor project, mouse ES cells, Bmi1 luciferase knock-in, single point (AID 602393);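 note: 0% = median of the plate's neutral control wells and 100% = double that signal; a rise in the Bmi1 reporter signal indicates esBAF inhibition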
CONDITIONS_USED: 24 h, at 12.5 µM, active compounds read high, 100% = twice the neutral-well signal
In all, about 350,000 compounds went through this assay and about 7,000 (2%) were called active. Only a selection was taken, and actives are over-represented in it overall.
Recorded reporter increase, one value per entry.
Output spec: scalar in %, unitless text.

{"MOLECULE": "Cc1noc(C)c1S(=O)(=O)N(C)C[C@@H]1Oc2ccc(NC(=O)Cn3cnnn3)cc2CC(=O)N([C@@H](C)CO)C[C@H]1C", "DATA_VALUE": -6.08}

Prompt line: Give the measured reporter increase of CN(C)c1cc[n+](Cc2ccccc2)cc1 .
Response line: 12.9

Prompt line: CO[C@H]1CN(C)C(=O)c2cc(NS(C)(=O)=O)ccc2OC[C@@H](C)N(C)C[C@@H]1C , same question.
Response line: 0.827

Prompt line: COCC(=O)N[C@@H]1C=C[C@@H](CC(=O)N2CCCCC2)O[C@@H]1CO , same question.
Response line: 0.0415

Prompt line: O=C(C1CCC1)N1C[C@@H]2[C@H](c3ccccc31)[C@H](CO)N2C(=O)c1ccccc1 , same question.
Response line: -1.2

Prompt line: CNC[C@H]1Oc2ncc(-c3ccccc3C)cc2C(=O)N([C@@H](C)CO)C[C@@H]1C , same question.
Response line: -1.27

Prompt line: Cc1ccn2c(=O)nc(SCC(=O)NCc3ccc(F)cc3)nc2c1 , same question.
Response line: -3.54

Prompt line: C[C@@H]1CN([C@@H](C)CO)C(=O)c2cccc(NC(=O)Nc3ccc(C(F)(F)F)cc3)c2O[C@@H]1CN(C)S(=O)(=O)c1cccs1 , same question.
Response line: 0.762

Prompt line: Cn1cnc(CCNC(=O)C[C@@H]2CC[C@@H]3[C@H](COC[C@@H](O)CN3C(=O)Nc3ccccc3)O2)c1 , same question.
Response line: -3.44

Prompt line: CO[C@H]1CN(C)C(=O)c2ccc(NS(=O)(=O)c3cn(C)cn3)cc2OC[C@@H](C)N(CC2CC2)C[C@H]1C , same question.
Response line: -8.79

Prompt line: C[C@H](NC(=O)C[C@@H]1C[C@@H]2c3cc(NC(=O)Nc4ccc(C(F)(F)F)cc4)ccc3O[C@@H]2[C@H](CO)O1)c1ccccc1 , same question.
Response line: -3.56

Prompt line: COc1ccc(NC2=CC(=S)NC(C)(C)C2)cc1 , same question.
Response line: 1.51

Prompt line: CN(C)c1ccc(CSc2ccccc2)cc1 , same question.
Response line: 75.8

Prompt line: CO[C@@H]1CN(C)C(=O)c2cc(NC(=O)C3CCOCC3)ccc2OC[C@H](C)N(C)C[C@H]1C , same question.
Response line: -1.27

Prompt line: CO[C@@H]1CN(C)C(=O)c2cc(NC(=O)Nc3ccc4c(c3)OCO4)ccc2OC[C@@H](C)NC[C@@H]1C , same question.
Response line: 73.2

Prompt line: C[C@@H]1CN([C@@H](C)CO)C(=O)c2cc(C#CCN(C)C)cnc2O[C@@H]1CN(C)Cc1ccccn1 , same question.
Response line: -9.33

Prompt line: COc1ccc(-c2ccc3c(c2)[C@@H]2[C@@H](CCN2S(=O)(=O)c2ccccc2F)[C@H](CO)N3)cc1 , same question.
Response line: -0.198

Prompt line: CC(Cc1cccs1)NC(=O)c1cccc(Cl)c1 (stereo unspecified) , same question.
Response line: 59.9

Prompt line: Cn1c(NN)nc2sc3c(c2c1=O)CCC3 , same question.
Response line: -3.52

====

TEST: Bmi1 luciferase reporter increase in mESCs, primary screen, esBAF inhibitor project, mouse ES cells, Bmi1 luciferase knock-in, single point (AID 602393);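 note: 0% = median of the plate's neutral control wells and 100% = double that signal; a rise in the Bmi1 reporter signal indicates esBAF inhibition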
CONDITIONS_USED: 24 h, at 12.5 µM, active compounds read high, 100% = twice the neutral-well signal
The campaign covered roughly 350,000 compounds. About 7,000 (2%) were called active. This excerpt belongs to a sample that is enriched for actives.
MEASURED_ATTRIBUTE: reporter increase (%)
Output spec: scalar in %, unitless text.

Study these solved cases before continuing.
{"MOLECULE": "CCc1ccccc1NC(=O)c1cc(-c2ccc3c(c2)OCO3)on1", "QUANTITY_UNIT": "%", "reporter increase": 43.8}
{"MOLECULE": "COc1ccccc1-c1c(C)nn2c(C)c(C(C)=O)cnc12", "QUANTITY_UNIT": "%", "reporter increase": -4.24}
{"MOLECULE": "COc1ccccc1Nc1ncc(C(C)=O)c(C)n1", "QUANTITY_UNIT": "%", "reporter increase": 43.9}
{"MOLECULE": "Cc1cc(OCc2cc(C(=O)NCc3cc(C(C)C)no3)no2)cc(C)c1Cl", "QUANTITY_UNIT": "%", "reporter increase": 81.9}
{"MOLECULE": "O=C(C[C@H]1CC[C@H]2[C@@H](COC[C@@H](O)CN2C(=O)c2ccc3c(c2)OCO3)O1)NC1Cc2ccccc2C1", "QUANTITY_UNIT": "%", "reporter increase": -0.266}
{"MOLECULE": "O=C(C[C@@H]1C[C@@H]2c3cc(NS(=O)(=O)c4ccc(F)cc4)ccc3O[C@@H]2[C@H](CO)O1)N1CCCCC1", "QUANTITY_UNIT": "%", "reporter increase": -3.2}
{"MOLECULE": "O=C(Nc1ccccc1)Nc1ccc2c(c1)[C@@H]1C[C@@H](CC(=O)N3CCCCC3)O[C@H](CO)[C@@H]1O2", "QUANTITY_UNIT": "%", "reporter increase": -0.639}
{"MOLECULE": "CCCNC(=O)NC[C@H]1[C@H](c2ccc(C3=CCCCC3)cc2)[C@H](CO)N1C(C)=O", "QUANTITY_UNIT": "%", "reporter increase": -2.67}

Prompt line: Give the measured reporter increase of O=C(C[C@@H]1C[C@@H]2c3cc(NC(=O)C4CCC4)ccc3O[C@@H]2[C@@H](CO)O1)NCCN1CCCCC1 .
Response line: 1.69

Prompt line: CSc1ccccc1NC(=O)c1cnc2sc(C)cn2c1=O , same question.
Response line: 68.8

Prompt line: O=C(CNC(=O)c1ccc2ccccc2c1)Nc1ncccc1O , same question.
Response line: 51.4

====

TEST: Bmi1 luciferase reporter increase in mESCs, primary screen, esBAF inhibitor project, mouse ES cells, Bmi1 luciferase knock-in, single point (AID 602393);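 note: 0% = median of the plate's neutral control wells and 100% = double that signal; a rise in the Bmi1 reporter signal indicates esBAF inhibition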
CONDITIONS_USED: 24 h, at 12.5 µM, active compounds read high, 100% = twice the neutral-well signal
About 7,000 (2%) of roughly 350,000 compounds were called active. The list comes from a sample in which actives are over-represented; it also holds close analogues and randomly drawn compounds.
MEASURED_ATTRIBUTE: reporter increase (%)
Output spec: scalar in %, unitless text.

Study these solved cases before continuing.
{"COMPOUND": "C[C@@H]1CN([C@H](C)CO)S(=O)(=O)c2ccc(C#CC3CCCC3)cc2O[C@@H]1CN(C)Cc1ccccc1C(=O)O", "QUANTITY_UNIT": "%", "reporter increase": -3.9}
{"COMPOUND": "Cc1ccc(OCc2cc(C(=O)N(C)CCn3ccnc3C)no2)cc1C", "QUANTITY_UNIT": "%", "reporter increase": 11.8}
{"COMPOUND": "CN1CCN(CCNC(=O)Nc2ccccc2[N+](=O)[O-])CC1", "QUANTITY_UNIT": "%", "reporter increase": -5.22}
{"COMPOUND": "CO[C@@H]1CN(C)C(=O)c2cc(NC(=O)C3CCC3)ccc2OC[C@H](C)N(C(=O)CN(C)C)C[C@@H]1C", "QUANTITY_UNIT": "%", "reporter increase": -3.99}
{"COMPOUND": "CCCNC(=O)N1[C@H](CO)[C@H]2c3ccccc3N(C(=O)Nc3cccc(Cl)c3)C[C@H]21", "QUANTITY_UNIT": "%", "reporter increase": -0.3}
{"COMPOUND": "COc1ccc(NC(=O)N(C)C[C@@H]2OCc3ccccc3-c3c(n(C)c4ccccc34)C(=O)N([C@H](C)CO)C[C@H]2C)cc1", "QUANTITY_UNIT": "%", "reporter increase": -4.05}

Prompt line: Give the measured reporter increase of O=C(C[C@H]1CC[C@@H](NC(=O)Cc2cccnc2)[C@H](CO)O1)Nc1ccc(-c2ccccc2)cc1 .
Response line: -2.77

Prompt line: Cc1csc(NC(=O)Nc2ccccc2[N+](=O)[O-])n1 , same question.
Response line: 60.4

Prompt line: CCCN(C)C[C@H]1Oc2ncc(C#CC3CCCCC3)cc2C(=O)N([C@H](C)CO)C[C@@H]1C , same question.
Response line: -4.47

Prompt line: Cc1ccc(OCc2cc(C(=O)N(C)CCc3ccccc3)no2)cc1C , same question.
Response line: 71.6

Prompt line: Cn1c(=NC(=O)C2CC2)sc2cc(F)cc(F)c21 , same question.
Response line: 62

Prompt line: C/C=C/c1cnc2c(c1)C(=O)N([C@H](C)CO)C[C@H](C)[C@@H](CN(C)S(=O)(=O)c1ccccc1F)O2 , same question.
Response line: 0.934

All values here come from PubChem BioAssay AID602393.
